Target: human TLR9 (Homo sapiens (Human))
Sequence (Q9NR96 26-1032): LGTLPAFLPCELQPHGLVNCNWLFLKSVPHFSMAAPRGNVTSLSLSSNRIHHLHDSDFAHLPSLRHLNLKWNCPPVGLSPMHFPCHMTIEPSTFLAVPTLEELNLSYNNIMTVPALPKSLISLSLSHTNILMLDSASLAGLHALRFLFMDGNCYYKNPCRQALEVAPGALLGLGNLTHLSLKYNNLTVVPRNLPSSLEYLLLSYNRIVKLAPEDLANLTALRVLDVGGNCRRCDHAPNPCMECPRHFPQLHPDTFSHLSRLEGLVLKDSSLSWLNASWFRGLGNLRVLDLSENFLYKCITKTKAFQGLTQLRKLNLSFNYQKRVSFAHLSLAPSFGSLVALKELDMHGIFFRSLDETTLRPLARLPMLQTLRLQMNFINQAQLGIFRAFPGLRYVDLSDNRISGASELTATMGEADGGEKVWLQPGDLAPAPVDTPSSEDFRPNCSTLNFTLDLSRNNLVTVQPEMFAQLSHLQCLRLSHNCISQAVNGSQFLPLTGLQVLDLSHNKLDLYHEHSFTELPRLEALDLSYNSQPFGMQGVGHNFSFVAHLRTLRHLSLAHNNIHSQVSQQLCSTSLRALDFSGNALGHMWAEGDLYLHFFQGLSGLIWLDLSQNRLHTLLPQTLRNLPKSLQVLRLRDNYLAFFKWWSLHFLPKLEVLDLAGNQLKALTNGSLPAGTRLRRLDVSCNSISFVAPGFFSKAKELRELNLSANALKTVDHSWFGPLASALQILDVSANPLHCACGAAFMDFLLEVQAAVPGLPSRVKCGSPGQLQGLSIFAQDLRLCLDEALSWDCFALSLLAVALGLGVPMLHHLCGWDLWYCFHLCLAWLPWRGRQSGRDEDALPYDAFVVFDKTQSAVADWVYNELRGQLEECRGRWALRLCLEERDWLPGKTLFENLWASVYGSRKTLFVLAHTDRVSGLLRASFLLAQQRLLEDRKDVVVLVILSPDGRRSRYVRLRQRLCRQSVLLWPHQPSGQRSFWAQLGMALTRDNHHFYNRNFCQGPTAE
Assay: TLR9 inhibition reporter assay (HEK-Blue cells, SEAP reporter, ODN2006 stimulation);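 also: compounds tested over 0.05 nM to 50 µM, 22 h incubation, inhibition taken as SEAP signal drop from agonist plus DMSO wells toward a known inhibitor control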
Conditions: read-out: TLR9 IC50, HEK-Blue cells overexpressing human TLR9, ODN2006 5 nM
VALUE TYPE: IC50 (nM)
Only the number, expressed in nM, is required.

COCCN(C)CC(=O)N1CCC(c2ccc3[nH]c(-c4cc(C)nc(C)c4)c(C(C)C)c3c2)CC1	900
Cc1cc(-c2[nH]c3ccc(C4CCN(CC(=O)N5CCCCC5C)CC4)cc3c2C(C)C)cc(C)n1 (stereo not shown)	192
Cc1cc(-c2[nH]c3ccc(C4CCN(C(=O)C5(C)CCN(C(C)C)CC5)CC4)cc3c2C(C)C)cc(C)n1	937
Cc1cc(-c2[nH]c3ccc(C4CCN(Cc5c[nH]nn5)CC4)cc3c2C(C)C)cc(C)n1	292
Cc1cc(-c2[nH]c3ccc(C4CCN(CC(=O)N(C(C)C)C(C)C)CC4)cc3c2C(C)C)cc(C)n1	1340

Prompt: What value of IC50 has been recorded for this entry: `COc1nccc(-c2[nH]c3ccc(C4CCN(C5CCN(CC(C)C)CC5)CC4)cc3c2C)c1OC`
Completion: 180

Prompt: Thanks! And `Cc1cc(-c2[nH]c3ccc(C4CCN(C(=O)CN(C)CCCO)CC4)cc3c2C(C)C)cc(C)n1` ?
Completion: 1230
